settings: 303.15 K; 101.33 kPa; Liquid; Vibrating tube method
value.type: mass density (kg/m3)
Give just the number in kg/m3; leave the unit off.

Worked cases, mass density given:
// field: mass density; key: CCC[n+]1cccc(C)c1.O=S(=O)([N-]S(=O)(=O)C(F)(F)F)C(F)(F)F ; value = 1443.28

// field: mass density; key: C[n+]1ccn(CCCCS(=O)(=O)O)c1.O=S(=O)([O-])O [1-methyl-3-(4-sulfobutyl)-imidazolium hydrogensulfate] ; value = 1433.68

// field: mass density; key: C[n+]1ccn(CCCCS(=O)(=O)O)c1.O=S(=O)([N-]S(=O)(=O)C(F)(F)F)C(F)(F)F ; value = 1577.87

API: the following record is the query input.
// field: mass density; key: CC(O)C(=O)[O-].CCn1cc[n+](C)c1 [1-ethyl-3-methylimidazolium lactate] ; value = 1138.89

----------
conditions: 288.15 K; 101.33 kPa; Liquid; Vibrating tube method
Numbers after ± are expanded uncertainties.
value.type: mass density
# include the unit after the value

// field: mass density; key: CC(O)C(=O)[O-].CCn1cc[n+](C)c1 [1-ethyl-3-methylimidazolium lactate] ; value = 1149.77 ± 7.2 kg/m3

// field: mass density; key: CCC[n+]1cccc(C)c1.O=S(=O)([N-]S(=O)(=O)C(F)(F)F)C(F)(F)F ; value = 1457.62 ± 80 kg/m3

// field: mass density; key: C[n+]1ccn(CCCCS(=O)(=O)O)c1.O=S(=O)([N-]S(=O)(=O)C(F)(F)F)C(F)(F)F ; value = 1592.96 ± 80 kg/m3

---
// field: mass density; key: C[n+]1ccn(CCCCS(=O)(=O)O)c1.O=S(=O)([O-])O [1-methyl-3-(4-sulfobutyl)-imidazolium hydrogensulfate] ; value = 1447.02 ± 80 kg/m3

----------
details: 313.15 K; 101.33 kPa; Liquid; Vibrating tube method
value.type: mass density (kg/m3)
Give just the number in kg/m3; leave the unit off.

Worked cases, mass density given:
// field: mass density; key: C[n+]1ccn(CCCCS(=O)(=O)O)c1.O=S(=O)([O-])O [1-methyl-3-(4-sulfobutyl)-imidazolium hydrogensulfate] ; value = 1426.76

// field: mass density; key: CC(O)C(=O)[O-].CCn1cc[n+](C)c1 [1-ethyl-3-methylimidazolium lactate] ; value = 1131.95

---
// field: mass density; key: CCC[n+]1cccc(C)c1.O=S(=O)([N-]S(=O)(=O)C(F)(F)F)C(F)(F)F ; value = 1433.81

// field: mass density; key: C[n+]1ccn(CCCCS(=O)(=O)O)c1.O=S(=O)([N-]S(=O)(=O)C(F)(F)F)C(F)(F)F ; value = 1568.52

----------
conditions: 343.15 K; 101.33 kPa; Liquid; Vibrating tube method
Entries annotated with measured mass density
Give just the number in kg/m3; leave the unit off.

// field: mass density; key: C[n+]1ccn(CCCCS(=O)(=O)O)c1.O=S(=O)([N-]S(=O)(=O)C(F)(F)F)C(F)(F)F ; value = 1541.12

// field: mass density; key: CCC[n+]1cccc(C)c1.O=S(=O)([N-]S(=O)(=O)C(F)(F)F)C(F)(F)F ; value = 1405.96

// field: mass density; key: CC(O)C(=O)[O-].CCn1cc[n+](C)c1 [1-ethyl-3-methylimidazolium lactate] ; value = 1111.66

---
// field: mass density; key: C[n+]1ccn(CCCCS(=O)(=O)O)c1.O=S(=O)([O-])O [1-methyl-3-(4-sulfobutyl)-imidazolium hydrogensulfate] ; value = 1408.07
